Just for reference, ChEMBL document CHEMBL1136680 is where these values come from.

# Target: Estrogen receptor (Homo sapiens) (UniProt Q92731+P03372)
# Assay Name: Displacement of [3H]estradiol from estrogen receptor
# Assay type: protein assay
# Assay Context: tested as the Zn salt or complex
Result Type: relative binding affinity (RBA)
Kindly provide the number alone.

Which relative binding affinity (RBA) is listed for `C[C@]12CC[C@@H]3c4ccc(O)cc4CC[C@H]3[C@@H]1CC[C@]2(O)c1ccc(C#CC#Cc2ccc3c(c2)-c2nc-3nc3[nH]c(nc4nc(nc5[nH]c(n2)c2ccc(S(=O)(=O)[O-])cc52)-c2ccc(S(=O)(=O)[O-])cc2-4)c2ccc(S(=O)(=O)[O-])cc32)cc1.[Na+].[Na+].[Na+].[Zn]` ? 1.22

Would you mind doing `C[C@]12CC[C@@H]3c4ccc(O)cc4CC[C@H]3[C@@H]1CC[C@]2(O)CCCCC#CC#Cc1ccc2c(c1)-c1nc-2nc2[nH]c(nc3nc(nc4[nH]c(n1)c1ccc(S(=O)(=O)[O-])cc41)-c1ccc(S(=O)(=O)[O-])cc1-3)c1ccc(S(=O)(=O)[O-])cc21.[Na+].[Na+].[Na+].[Zn]` as well? 1.26

Would you mind doing `CCCCc1ccc2c(c1)-c1nc-2nc2[nH]c(nc3nc(nc4[nH]c(n1)c1ccc(CCCC)cc41)-c1ccc(C#CC#Cc4cccc([C@@]5(O)CC[C@H]6[C@@H]7CCc8cc(O)ccc8[C@H]7CC[C@@]65C)c4)cc1-3)c1ccc(CCCC)cc21` as well? 8.54

Would you mind doing `C[C@]12CC[C@@H]3c4ccc(O)cc4CC[C@H]3[C@@H]1CC[C@]2(O)C#Cc1cccc2cc3c(cc12)-c1nc-3nc2[nH]c(nc3nc(nc4[nH]c(n1)c1ccc(S(=O)(=O)[O-])cc41)-c1ccc(S(=O)(=O)[O-])cc1-3)c1cc(S(=O)(=O)[O-])ccc21.[Na+].[Na+].[Na+].[Zn]` as well? 1.24

###

Below, each entry is listed with its recorded relative binding affinity (RBA).
# Target: Estrogen receptor (Homo sapiens) (UniProt Q92731+P03372)
# Assay Name: Displacement of [3H]estradiol from estrogen receptor
# Assay type: protein assay
# Assay Context: tested as the Zn salt or complex
Kindly provide the number alone.

Record excerpt, results attached:
Which relative binding affinity (RBA) is listed for `CCCCc1ccc2c(c1)-c1nc-2nc2[nH]c(nc3nc(nc4[nH]c(n1)c1ccc(CCCC)cc41)-c1ccc(C#CC#CCCCC[C@@]4(O)CC[C@H]5[C@@H]6CCc7cc(O)ccc7[C@H]6CC[C@@]54C)cc1-3)c1ccc(CCCC)cc21` ? 3.08

Would you mind doing `CCCCc1ccc2c(c1)-c1nc-2nc2[nH]c(nc3nc(nc4[nH]c(n1)c1ccc(CCCC)cc41)-c1cccc(C#C[C@@]4(O)CC[C@H]5[C@@H]6CCc7cc(O)ccc7[C@H]6CC[C@@]54C)c1-3)c1ccc(CCCC)cc21` as well? 12.9

Turning now to a further record.
Which relative binding affinity (RBA) is listed for `C[C@]12CC[C@@H]3c4ccc(O)cc4CC[C@H]3[C@@H]1CC[C@]2(O)C#Cc1ccc2c(c1)-c1nc-2nc2[nH]c(nc3nc(nc4[nH]c(n1)c1ccc(S(=O)(=O)[O-])cc41)-c1ccc(S(=O)(=O)[O-])cc1-3)c1cc(S(=O)(=O)[O-])ccc21.[Na+].[Na+].[Na+].[Zn]` ? 1.64
